Measured TGI accompanies every entry in the list below.
Test system: SR leukemia
Experiment: NCI tumour cell line growth inhibition, 48 h
outcome-measure: TGI (µM)

{"compound": "Cn1c2c(c3c(=O)[nH]ncc31)CCCc1ccccc1-2", "outcome-measure": "TGI", "unit-abbrev": "µM", "qual": "=", "recorded-result": 51.8}
{"compound": "CC1CC2(C)CC(=O)C1C1C(=O)N(CCN3CCOCC3)C(=O)C12 (stereo not given)", "outcome-measure": "TGI", "unit-abbrev": "µM", "qual": ">", "recorded-result": 100}
{"compound": "CC1CC(c2ccc([N+](=O)[O-])cc2)=Nc2ccccc2S1=O (stereo not given)", "outcome-measure": "TGI", "unit-abbrev": "µM", "qual": "=", "recorded-result": 76.6}
{"compound": "N#CCCn1c(CCC(=O)Nc2ccc(Cl)cc2Cl)n[nH]c1=S", "outcome-measure": "TGI", "unit-abbrev": "µM", "qual": ">", "recorded-result": 100}
{"compound": "NC(=O)N=Nc1c2ccccc2n2[nH]ccc12", "outcome-measure": "TGI", "unit-abbrev": "µM", "qual": ">", "recorded-result": 100}

###

System: IGROV1 ovarian
Assay: NCI tumour cell line growth inhibition, 48 h; in the data active = GI50 below about 0.43 µM; inactive = the rest
Labels: True = active, False = inactive

{"compound": "COC(=O)CCc1c(/C=C2\\N=C(c3ccc[nH]3)C=C2OC)[nH]c(C)c1C(=O)OCc1ccccc1", "qualitative-label": "True"}
{"compound": "CC(=O)Nc1nc(C)c(-c2cc3c(c(S(C)(=O)=O)c2)C(=O)N([C@@H](C)C2CC2)C3)s1", "qualitative-label": "False"}
{"compound": "O=C1CC2OCC=C3CN4CCC56c7ccccc7N1C5C2C3CC46 (stereo not drawn) (tested in a mixture with another compound)", "qualitative-label": "False"}

###

System: MCF7 breast
Assay: NCI tumour cell line growth inhibition, 48 h
Where a SMILES comes first, the peptide text is derived from it. [ ]: non-standard residue; d: D form. The star is where a group is joined. ξ: configuration not given here. dIva = CC[C@@](C)(N)C(=O)O; Aib = CC(C)(N)C(=O)O; ξP = O=C(O)C1CCCN1; βAla = NCCC(=O)O; X5 = OCN*
Measured TGI accompanies every entry in the list below.

{"molecule": "NC(N)=N/N=C/c1c(-c2ccc(Cl)cc2)nc2n1CCS2", "TGI": "27.9 µM"}
{"molecule": "CCCNC(=O)c1cc(NC(=O)c2cc(NC(=O)CCS(=O)(=O)OC)cn2C)cn1C", "TGI": "> 100 µM"}
{"molecule": "Cc1ccc(C)c(C(=N)c2ccccc2Cc2ccccc2)c1", "TGI": "32.4 µM"}
{"molecule": "NS(=O)(=O)c1ccc(N=Nc2c(=O)[nH]c3ccc4[nH]cccc4c23)cc1", "TGI": "> 25 µM"}
{"molecule": "C[Si](C)(C)C#CCOC=C1CC1", "TGI": "> 100 µM"}
{"molecule": "CC(C)Cn1cnc2c(SCc3ccccn3)nc(N)nc21", "TGI": "> 100 µM"}
{"molecule": "COC(=O)c1c(OC(C)=O)ccc2c1c1cc3ccccc3c(OC(C)=O)c1n2C", "TGI": "> 100 µM"}
{"molecule": "Cc1cccc2c(=O)c3c(O)cc4c(c3n(C)c12)C=CC(C)(C)O4", "TGI": "> 100 µM"}
{"molecule": "Cc1c(C=C(C#N)C#N)c(=O)n(C)c(=O)n1C", "TGI": "> 100 µM"}
{"molecule": "CC(CNc1nc(Nc2ccc(Cl)c(Cl)c2)nc(C(Cl)(Cl)Cl)n1)N(C)C (stereo not given)", "TGI": "3.16 µM"}
{"molecule": "Cc1ccc(NCc2nnc3c(-c4ccccc4)nc4ccccc4n23)cc1", "TGI": "> 100 µM"}
{"molecule": "COc1cc[nH]c1/C=C1\\C(=O)Nc2ccc([N+](=O)[O-])c(N3CC[C@@H](O)C3)c21", "TGI": "2.85 µM"}
{"molecule": "Cc1cc(C)nc(NS(=O)(=O)c2ccc(NC(=O)c3ccc4nc5ccccc5c(Nc5ccc(S(=O)(=O)Nc6nc(C)cc(C)n6)cc5)c4c3)cc2)n1", "TGI": "84.5 µM"}
{"molecule": "Cc1ccc(S(=O)(=O)N/N=C2\\CC3C4CCC3C2C4)cc1 (stereo not given)", "TGI": "> 100 µM"}
{"molecule": "C=CC(=O)Nc1cccc(Nc2nc(Nc3ccc(N4CCN(C(C)=O)CC4)cc3OC)ncc2C(F)(F)F)c1", "TGI": "> 100 µM"}
{"molecule": "COc1cc2c3c(n(CCCN4CCN(CCO)CC4)c(=O)c2cc1OC)-c1cc2c(cc1C3=O)OCO2", "TGI": "17.5 µM"}
{"molecule": "O=c1ccc2nc3ccc(O)cc3oc-2c1", "TGI": "> 52.7 µM"}
{"molecule": "CC(=O)N1c2ccc(-c3ccc(C(=O)O)cc3)cc2[C@H](Nc2ccc(Cl)cc2)C[C@@H]1C", "TGI": "> 100 µM"}
{"molecule": "COc1ccc(-c2c(C#N)cnc(N)c2-c2nc3cc(C)c(C)cc3[nH]2)cc1", "TGI": "> 100 µM"}
{"molecule": "CC[C@@](C)(NC(=O)[C@H](C)NC(=O)CCNC(=O)C(C)(C)NC(=O)[C@H](C)NC(=O)[C@@H]1CCCN1C(=O)[C@@](C)(CC)NC(=O)[C@H](Cc1ccccc1)NC(=O)C1CCCN1C(=O)C(C)(C)NC(=O)C1CCCN1C(=O)C(C)(C)NC(C)=O)C(=O)NCCC(=O)N[C@@H](CC(C)C)C(=O)NC(C)(C)C(=O)NCCC(=O)N[C@@H](CC(C)C)C(=O)NC(C)(C)C(=O)NC(C)(C)C(=O)N[C@@H](CC(C)C)C(=O)NCCC(=O)NCO (stereo not given in full) (Ac-[Aib][ξP][Aib][ξP]F[dIva]PA[Aib][βAla]A[dIva][βAla]L[Aib][βAla]L[Aib][Aib]L[βAla]-X5)", "TGI": "0.286 µM"}
{"molecule": "CC(C)CC1NC(=O)C(C(C)C)NC(=O)CC(C)COC(=O)C(CC(C)C)N(C)C(=O)C(C(C)C)NC(=O)C(C(C)C)OC1=O (stereo not given)", "TGI": "> 50 µM"}
{"molecule": "COc1cc(OC)cc(Oc2nc3c(N)cc(C(F)(F)F)cc3nc2-c2ccccc2)c1", "TGI": "99 µM"}
{"molecule": "CC(=O)Nc1ccc2c3c(cc(O)c2c1)N(C(=O)CCCCCC(=O)Nc1ccc2c4c(cc(O)c2c1)N(C(=O)OC(C)(C)C)CC4CCl)CC3CCl (stereo not given)", "TGI": "> 35.5 µM"}
{"molecule": "CC(=O)Oc1cc2c(n(C)c1=O)CCC2", "TGI": "> 100 µM"}
{"molecule": "O=C(Nc1ccc(N2CCNCC2)cn1)c1[nH]ncc1Nc1ncnc2sc3c(c12)CCC3", "TGI": "4.2 µM"}
{"molecule": "CC(=O)Oc1ccc2c3c1[C@@H]1O[C@@H]1c1cccc(c1-3)[C@@H]1O[C@H]21", "TGI": "> 100 µM"}
{"molecule": "CCCCn1c2c(n(CCCC)c1=[Se])-c1c(n(CCCC)c(=[Se])n1CCCC)S[Se][Se]S2", "TGI": "> 69 µM"}
{"molecule": "NC(N)=NC(N)=NCc1ccco1", "TGI": "> 1250 µM"}
{"molecule": "Cc1ccc2nnc(NS(=O)(=O)c3cc(C)c(Cl)cc3S)n2n1", "TGI": "> 100 µM"}
{"molecule": "CC1(C)O[C@@H](CP(c2ccc3ccccc3c2)c2ccc3ccccc3c2)[C@H](CP(c2ccc3ccccc3c2)c2ccc3ccccc3c2)O1", "TGI": "> 100 µM"}

###

Tested on: SK-OV-3 ovarian
Test: NCI tumour cell line growth inhibition, 48 h

{"molecule": "O=c1[nH]c(Br)nc2c(N3CCCCC3)c[nH]c12", "TGI": "> 100 µM"}
{"molecule": "COc1cc2c(cc1OC)C(=O)N1CCCC1C(=O)S2 (stereo unspecified)", "TGI": "> 100 µM"}
{"molecule": "C[Si](C)(C)C#CCOC=C1CC1", "TGI": "> 100 µM"}
{"molecule": "CN1CCN(Cc2ccc(NC(=O)c3cncc(C#Cc4ncc5ccccn45)c3)cc2C(F)(F)F)CC1", "TGI": "4.58 µM"}
{"molecule": "CCOC(=O)C1C(=O)c2cccc(OC)c2C2COC(=O)N12 (stereo unspecified)", "TGI": "> 100 µM"}
{"molecule": "Cc1ccc(NCc2nnc3c(-c4ccccc4)nc4ccccc4n23)cc1", "TGI": "> 100 µM"}
{"molecule": "O=c1cc(-c2cccc(Br)c2)[nH]c2cc3c(cc12)OCO3", "TGI": "17 µM"}
{"molecule": "NCCNc1ncnc2ccc(Cl)cc12", "TGI": "> 100 µM"}
{"molecule": "COc1ccc([Se]c2ccc(OC)cc2)cc1", "TGI": "> 100 µM"}
{"molecule": "COc1ccc(-c2cc3c(N)ncnc3o2)cc1", "TGI": "> 25 µM"}
{"molecule": "Cc1ccc(SSCCCCS(=O)O)cc1", "TGI": "71 µM"}
{"molecule": "CCN(CC)c1ccc(N=C2C=CC(=C(C#N)C#N)c3ccccc32)c(C)c1", "TGI": "24 µM"}
{"molecule": "OCC(O)C(OC1OC(CO)C(O)C(O)C1O)c1nn(-c2ccc(Cl)cc2)c2nc3cc(Cl)ccc3nc12 (stereo unspecified)", "TGI": "> 100 µM"}
{"molecule": "Cc1cc(C)nc(NS(=O)(=O)c2ccc(NC(=O)c3ccc4nc5ccccc5c(Nc5ccc(S(=O)(=O)Nc6nc(C)cc(C)n6)cc5)c4c3)cc2)n1", "TGI": "> 100 µM"}
{"molecule": "CC(C)=C=CC(C)(C)NS(=O)(=O)NC(C)(C)C=C=C(C)C", "TGI": "> 100 µM"}
{"molecule": "Cn1c(=O)c2[nH]cnc2n(C)c1=O.[CH2-]C(Cc1cccc2cc(C(=O)O)c(=O)oc12)OC.[Hg+2].[OH-] (stereo unspecified)", "TGI": "> 58.5 µM"}
